meta.source: the supplement of paper PMC12764529

Listed below: folding stability dG unfold values for each entry.
protocol.details: folding stability dG unfold from chymotrypsin proteolysis; higher = more stable
Response body: numeric value in kcal/mol, unit text excluded.

construct.sequence	folding stability dG unfold [kcal/mol]
SMNVTEEVTVEELPSGEVLTETVVTEPSGVTTVTTTLASPPDRPVVETRTTTYPPDGSSTETSTVAPLPGSA [r9_1179_JUSTAS]	0.507
SAGGSGRQMVRNIVRHALDQQQQHGKPIDKIYIFGPPNMRKEIKKELEEEGLPPGVKITIVPAEDMQSAGGS [r16_164_TrROS]	0.101
SAGGSAGGSAMTLRVKITLPDGRELELEIEAETEEEALAALKELIKKLFPEVKEVKIEVEPESAGGSAGGSA [r18_434_TrROS_Hall]	4.85

As a next step, examine the sequence that follows.
folding stability dG unfold for SAMVTYDPEKGVFEAEIEVGGETLRVTVVRDPETGEVVAVVERPGSGEPVVLPLPFKSLSDVIRYAEEHSAG [r14_803_TrMRF] is 2.49

====

Listed below: folding stability dG unfold values for each entry.
protocol.details: folding stability dG unfold from trypsin proteolysis; higher = more stable
Response body: numeric value in kcal/mol, unit text excluded.

For orientation, consider the following solved cases.
construct.sequence	value.measured
SAGGSAGGSAGGKMLLIKITTKDGREFTLEISEEEAKKLAEELKKKFPNQKIEVEIVPLKSAGGSAGGSAGG [r7_349_TrROS_Hall]	3.21
SAPPTVKINWERVRRNGKRYYMIRVEITHPNNGKEREHTFMYDDPEDFLDNLLKLPNIDRVEIEDIYPMSAG [r14_464_TrROS]	1.64
SAFNIEIEEVDPNEIYIKIDATPEQLEEIAEDIMKNFPGYKVKWEWDDEQGKIWFRIRPVPPPPPEDQNSAG [r14_600_TrROS]	1.14

folding stability dG unfold for SAGGSAGGSAKHRVDDIQPQRHKNPDGEKPVRVRFPDNGQEERIPADNLDDIDVSDGMEVEPSAGGSAGGSA [r18_288_TrROS] is -1.8

folding stability dG unfold for SAGGSAGGSAGGIEELAKKYPNIKIVEVKTVKVTETNKDGKKTEKTKTEIKIYKDGEEISAGGSAGGSAGGS [r10_0_TrROS_Hall] is -0.0124

folding stability dG unfold for SAGGSMKITKIEIEKLPNGEYKITITKDENGNITVTVTNKNGKKKTITLKVKPEDVEEVLKELLKKSAGGSA [r2_298_TrROS_Hall] is 1.6

====

Listed below: folding stability dG unfold values for each entry.
protocol.details: folding stability dG unfold from chymotrypsin proteolysis; higher = more stable
Please answer using the number first and the unit second.

folding stability dG unfold for SAGGMVVVAVEVDPVTKTATIVYAAPVPNLGGYVPIPAAAVAKRLTEELGLPDVKEVTVAQAAGDVPISAGG [r13_327_TrMRF] is 0.607 kcal/mol

folding stability dG unfold for SAGGSAGGSAGKVIKLEELKKKFPNMSPEELAAFFKKLGYKVEVVKVGDVPYVFLSPGEKSAGGSAGGSAGG [r11_707_TrMRF] is 3.68 kcal/mol

folding stability dG unfold for SAGGSAGGSAGKYEVTKIEVVKNEDGSEYLRVTIKVDGKEITITIPLEDAENIKIEIKPPSAGGSAGGSAGG [r17_64_TrROS_Hall] is 3.59 kcal/mol

folding stability dG unfold for SAGGSMPKGQEVKIEIEHRRHNGRRYWRVSVEVPNGKDIEIPFDDPEEMPPEMKKQIENLAKEIVKSAGGSA [r2_17_TrROS] is 1.11 kcal/mol

folding stability dG unfold for SAGGSAPPDTPLATIEFTLTPPDGSTTPTTITVPPSVVEEAAAAQKAAFEAAGWATTVTVATTTPLSAGGSA [r2_274_JUSTAS] is 0.246 kcal/mol

folding stability dG unfold for SAGGMGRARLYELEIEVDLHPDETIEGALRRLLGLREDEEILEVEAEVDPVNGKVRIRAVVLVRDPETSAGG [r13_828_TrMRF] is 4.22 kcal/mol

folding stability dG unfold for SAGGSAKIPVMFMIESPEQIIELVDEFAPPGHEVKVKIDNVEPFPMREDGEERPYYMFRVTIEFPPSAGGSA [r15_95_TrROS] is 1.84 kcal/mol

folding stability dG unfold for MVAVFEFTFKSEEELLEAAEEVARRLAAELGLPEEELEKIPIEVEVEEIGNEDGEKEYKLTIRFGFPEEFLS [r1_81_TrMRF] is 3.92 kcal/mol

====

protocol.details: folding stability dG unfold from trypsin proteolysis; higher = more stable
So basically: folding stability dG unfold at 2 kcal/mol or higher? That is yes (1). Lower than 2 kcal/mol? That is no (0).

construct.sequence	class.label
SAGGSAGGSEKIKEALKELGYDVEIEEIEVKKNKNGKLEIKIKLKPGMSEEEKKRIEEALKKLSAGGSAGGS [r12_352_TrROS_Hall]	yes (1)
SAGKIKKIEVKEVTNENGEKYKKITIEVEKEGKKVEIIVNKNGEKFIKVEKNGKTITLPLDEALELLKKSAG [r5_157_TrROS_Hall]	no (0)
SAGGSAPDDVEVEIKNIHYNPNWGYIMITIKVDGPVDSIEIELPNGWEISVMRDKDGTMTIMFPFPSAGGSA [r15_736_TrROS]	yes (1)

Now consider a different sequence.
# check: folding stability dG unfold of SAGGITIELRNPNGEPVEVHLKRDPDGTLELSVHMRGPEGRHYMVTMTIKVKNNGIEIDKFDNWYPLPSAGG [r13_451_TrROS] is greater than or equal to 2 kcal/mol
yes (1)

====

Listed below: folding stability dG unfold values for each entry.
protocol.details: folding stability dG unfold (combined trypsin and chymotrypsin); higher = more stable

For orientation, consider the following solved cases.
construct.sequence	folding stability dG unfold
SGLVEAIAKALGAESVTPHPDGTFSLRLKDGSYLKIKVEVLEVRERPDGSPEFIVKIEIEVFEGGKPEDESA [r9_648_TrMRF]	> 25.1 kJ/mol
SANKFSPEEYAEWMIRTARRQVKENRQQGDPEKPKKVTIHFWEEHFPPYRKRIKKEAKEDGLPVEIEPPSAG [r14_908_TrROS]	< -4.18 kJ/mol

folding stability dG unfold for SAGGSAGGPPVVTKTDPNTGAVYTKVGDTWTSTPVPPPVVVRPVPLYDPDGRPLATGYTVLRLESAGGSAGG [r6_313_JUSTAS] is < -4.18 kJ/mol

====

protocol.details: folding stability dG unfold from trypsin proteolysis; higher = more stable
readout.kind: folding stability dG unfold

For orientation, consider the following solved cases.
construct.sequence	value.measured
SAGGSYLVEVVIEYPKQGVKKTVKLFVNNDPKKAEELAEDIIKELGYPDAKIEIKIIPVDPNDPRVLGSAGG [r13_682_JUSTAS]	1.98 kcal/mol
SAGGSAGGSMLTIEKPMPGTTEEEALEYAEELKEKNPNYKIEVEIEKTEEGYLTVKIKLTKKESAGGSAGGS [r12_425_JUSTAS]	1.31 kcal/mol
SAGGIEVDPEHKHVHIHIPNGNIPELLDLIEDAPGDHVSIHFYNPGNGKPRRFTMPRKEARKFLEQFSAGGS [r16_797_TrROS]	1.13 kcal/mol
SAGGSQRFRITELVVPEDDGNLFIRVRGPNGKSMFMPASDIEKARKNGKEIEFPFPNGQPFEVEIISAGGSA [r2_301_TrROS]	-0.34 kcal/mol
SAGGSAGGSAMTIQINNLPPEKIEEAADDHGIDTQRNEESDSYYIEMPPNDMDEIKEALGWSAGGSAGGSAG [r3_354_TrROS]	0.725 kcal/mol
SAGGMMTIEELKKLPPGAKVGDKIKIRNPATGETFTVTVLPDGRIKIEVDGKIYELPPGAEIVEIEKSAGGS [r8_162_TrROS_Hall]	1.93 kcal/mol
SAGGSAGGSAGGMVRITVEVDGKTYELVVEGMSLEEIEELLKKPNIKKAKVEPLSEEELKSAGGSAGGSAGG [r7_502_TrROS_Hall]	1.24 kcal/mol
SAGGSSPELAAERLAEELRRQGYAVREVVVTYDPAGTVTVSAVIEDPADPAATSTLTVTVPLAELGSAGGSA [r2_384_JUSTAS]	2.45 kcal/mol
SAGGSAGGSASITYENGYATITLKVPEGTVRIVDLATNEVIEIKPGDTVTIRVKIPPPPPESAGGSAGGSAG [r3_185_TrROS_Hall]	2.31 kcal/mol
SAGGSAGGSAGGGVTLPTGDIVVPVEYTTTVPVLTYNPTLGVSYFFTLTVTTSSTVYVGLSAGGSAGGSAGG [r7_374_JUSTAS]	2.71 kcal/mol

folding stability dG unfold for SAMTVEIEFPPELEVEELVEKLKEAFPGEEIEVEAERDPVEPRLRIRVTVDDPELAEEVEKKLRELVEESAG [r14_443_TrMRF] is 3.34 kcal/mol

folding stability dG unfold for SAGGFEFKAVKLKKNEEKEGELGGAKVRYVSDNKGPVYQVVEFGPEYRALAKVEGDKVELVAVEEGNPSAGG [r13_92_TrMRF] is -1.02 kcal/mol

folding stability dG unfold for SAGMTIEVEYTFPPGNPEEAEKRAEEIAEELKPKPLPNITIEISREPVVDPNSDATTTRYTFTITAEPKSAG [r5_49_JUSTAS] is 0.821 kcal/mol

folding stability dG unfold for SAGGSLTAEWDTSTGTVRLTFPDGSVVELPFPTSGAVVRATVDGDKVTIEVLDKDNPKVVARFTFDLGSAGG [r13_938_TrMRF] is 3.79 kcal/mol

folding stability dG unfold for SAGGSAGGSAGGSDNSITLDFFFNNYYIKITFNPWNGNLEIDEVQKVPPPPKPKDPGDKSAGGSAGGSAGGS [r4_21_TrROS] is 2.71 kcal/mol

folding stability dG unfold for SAGGSAGGSAEELVKYLAKEHGHPPGKEVTIPFDNWMIKIRYNNDGVPVGVEIKPMPPDDMSAGGSAGGSAG [r3_468_TrROS] is 0.717 kcal/mol

folding stability dG unfold for SAGGSAGGGMRIDDIDIKQDPGNPNRYKITIKFDGPPIEFTVPPGEPLPIRFPDGKPLFEIPIDSAGGSAGG [r6_922_TrROS] is 0.312 kcal/mol

folding stability dG unfold for SAGGSAGGSAGGMKKPILLPGETEEDVLERIKKLPKDYKVTIEKLDDDKLLVTITSPKLGSAGGSAGGSAGG [r7_662_JUSTAS] is 0.877 kcal/mol

folding stability dG unfold for SAGGATITVEPAPGDSVVALAEFGDSLALVTFYPKEATAKVTVFGPNGIPSTATFTIKPGEELVITGSAGGS [r8_11_TrMRF] is 1.25 kcal/mol

folding stability dG unfold for SAGGSAGGSGNSKLTATLTLEFYDPKTGKKIAKIELKPVITTLPNGTAKIDVEYKITFTNEDDSAGGSAGGS [r12_629_TrMRF] is 2.6 kcal/mol

folding stability dG unfold for SAGGSAGGSAGGMVRFPDGKEVETESEEELEELLKGVPVEEITIEDPEEKGEKKIPVKLSAGGSAGGSAGGS [r10_1191_JUSTAS] is 0.137 kcal/mol

folding stability dG unfold for SAGGSAGGSAGKLRYRYRFDTVLLEVTYDPSTGEVVEVKVIPLSPLPPLTPEELYRLLEDSAGGSAGGSAGG [r11_320_TrMRF] is 2.25 kcal/mol
